This listing pairs binders with measured Mean fluorescence intensity.
Target: T1, monkey LAG-3 on cells (HEK293-cLAG-3 stable cell line) (monkey, UniProt P18627 24-525 (human entry))
T1 construct: Full-length monkey (Chinese monkey) LAG-3 gene expressed on HEK293 cells
T1 chain: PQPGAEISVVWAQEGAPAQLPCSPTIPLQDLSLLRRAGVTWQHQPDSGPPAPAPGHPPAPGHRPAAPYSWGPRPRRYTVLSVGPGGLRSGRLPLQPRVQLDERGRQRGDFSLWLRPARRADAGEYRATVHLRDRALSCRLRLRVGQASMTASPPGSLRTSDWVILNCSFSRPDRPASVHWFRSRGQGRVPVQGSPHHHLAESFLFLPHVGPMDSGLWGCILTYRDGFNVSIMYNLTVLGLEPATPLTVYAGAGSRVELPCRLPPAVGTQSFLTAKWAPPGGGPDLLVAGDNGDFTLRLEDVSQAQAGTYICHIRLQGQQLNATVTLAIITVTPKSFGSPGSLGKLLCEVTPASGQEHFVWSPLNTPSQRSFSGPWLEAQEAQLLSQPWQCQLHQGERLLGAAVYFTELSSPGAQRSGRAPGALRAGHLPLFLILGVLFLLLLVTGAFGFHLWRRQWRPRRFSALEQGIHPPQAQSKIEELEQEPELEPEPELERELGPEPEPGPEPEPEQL
Test: FACS, HEK293-cLAG-3, antibody 200.000 nM
Hey, just send me the number, nothing else.

Completed entries (count: 4):
556F6B8 mouse-human chimeric antibody (antibody, V domains shown, also called mAb123-556F6B8; 556F8B8) VH: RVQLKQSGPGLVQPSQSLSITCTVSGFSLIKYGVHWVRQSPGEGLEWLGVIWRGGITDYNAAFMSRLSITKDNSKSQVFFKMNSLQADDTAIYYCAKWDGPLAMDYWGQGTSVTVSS VL: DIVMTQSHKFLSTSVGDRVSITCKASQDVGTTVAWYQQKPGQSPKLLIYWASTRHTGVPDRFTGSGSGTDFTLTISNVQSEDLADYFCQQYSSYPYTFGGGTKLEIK; 90.5
409D4E10 mouse-human chimeric antibody (antibody, V domains shown, also called mAb112-409D4E10) VH: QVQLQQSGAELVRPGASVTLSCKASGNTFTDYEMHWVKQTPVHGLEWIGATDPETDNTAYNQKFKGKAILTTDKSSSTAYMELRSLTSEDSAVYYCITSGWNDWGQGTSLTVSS VL: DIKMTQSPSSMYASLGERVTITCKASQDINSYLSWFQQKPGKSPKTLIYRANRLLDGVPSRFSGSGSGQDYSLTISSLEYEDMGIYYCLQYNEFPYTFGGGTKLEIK; 103
409B11E12 mouse-human chimeric antibody (antibody, V domains shown, also called mAb104-409B11E12) VH: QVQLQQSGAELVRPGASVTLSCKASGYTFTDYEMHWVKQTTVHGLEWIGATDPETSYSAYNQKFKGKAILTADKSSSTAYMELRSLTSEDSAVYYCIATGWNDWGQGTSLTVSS VL: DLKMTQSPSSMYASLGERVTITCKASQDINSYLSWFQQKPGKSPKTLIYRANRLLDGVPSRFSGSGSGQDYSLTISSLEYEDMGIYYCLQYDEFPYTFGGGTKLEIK; 114
405B8H3 mouse-human chimeric antibody (antibody, V domains shown, also called mAb103-405B8H3) VH: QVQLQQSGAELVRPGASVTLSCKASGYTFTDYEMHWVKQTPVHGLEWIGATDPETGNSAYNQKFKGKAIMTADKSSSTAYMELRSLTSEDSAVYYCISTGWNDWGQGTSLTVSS VL: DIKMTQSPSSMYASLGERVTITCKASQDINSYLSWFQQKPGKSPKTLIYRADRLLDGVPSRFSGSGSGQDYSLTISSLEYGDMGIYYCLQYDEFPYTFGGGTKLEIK; 108

Attention now shifts to the item below.
The value of Mean fluorescence intensity measured for the binder 105F1E10 mouse-human chimeric antibody (antibody, V domains shown, also called mAb009-105F1E10) VH: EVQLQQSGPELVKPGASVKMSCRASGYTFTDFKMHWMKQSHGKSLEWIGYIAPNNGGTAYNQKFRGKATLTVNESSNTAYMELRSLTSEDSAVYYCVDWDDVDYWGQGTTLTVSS VL: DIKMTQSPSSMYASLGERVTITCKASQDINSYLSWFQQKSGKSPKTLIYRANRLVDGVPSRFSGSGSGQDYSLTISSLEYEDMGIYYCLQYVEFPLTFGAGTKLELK turned out to be 94.5
